target.system: Adenosine A2 receptor (Rattus norvegicus, UniProt P29276+P30543)
assay.method.text: Binding affinity against adenosine A2 receptor in rat striatum by the displacement of [3H]N-ethyladenosine-5''-uronamide(NECA).
Format: tissue-based
Threshold-based label: Ki under 200 nM gives true (1), Ki not under 200 nM gives false (0).

{"columns": ["mol", "assigned.category"],
 "data": [
  ["CCCn1c(=O)n(C)c(=O)c2[nH]c(-c3ccc(C#N)cc3)nc21", "false (0)"],
  ["CCCn1c(=O)c2nc(-c3ccc(C#N)cc3)[nH]c2n(CCC)c1=O", "true (1)"],
  ["CCCn1c(=O)n(C)c(=O)c2[nH]c(CCc3ccccc3)nc21", "false (0)"],
  ["Cn1c(=O)c2nc(-c3ccccc3)[nH]c2n(C)c1=O", "false (0)"],
  ["CCCn1c(=O)c2nc(/C=C/c3ccccc3)[nH]c2n(C)c1=O", "true (1)"]
]}

====

target.system: Adenosine A2 receptor (Rattus norvegicus, UniProt P29276+P30543)
assay.method.text: Binding affinity against Adenosine A2 receptor in rat striatum by displacement of [3H]N-ethyladenosine-5''-uronamide(NECA)
Assay type: tissue-based

{"columns": ["mol", "target.system", "Ki [nM]"],
 "data": [
  ["CCCn1c(=O)c2nc(-c3cccnc3)[nH]c2n(C)c1=O", "Adenosine A2 receptor (Rattus norvegicus, UniProt P29276+P30543)", 3100],
  ["CCCn1c(=O)n(C)c(=O)c2[nH]c(-c3cccnc3)nc21", "Adenosine A2 receptor (Rattus norvegicus, UniProt P29276+P30543)", 1200],
  ["CCCn1c(=O)c2nc(-c3cccs3)[nH]c2n(CCC)c1=O", "Adenosine A2 receptor (Rattus norvegicus, UniProt P29276+P30543)", 173],
  ["CCCn1c(=O)n(C)c(=O)c2[nH]c(-c3ccsc3)nc21", "Adenosine A2 receptor (Rattus norvegicus, UniProt P29276+P30543)", 70.3],
  ["CCCn1c(=O)c2nc(-c3cccs3)[nH]c2n(C)c1=O", "Adenosine A2 receptor (Rattus norvegicus, UniProt P29276+P30543)", 719],
  ["CCCn1c(=O)c2nc(-c3cccnc3)[nH]c2n(CCC)c1=O", "Adenosine A2 receptor (Rattus norvegicus, UniProt P29276+P30543)", 347],
  ["CCCn1c(=O)c2nc(-c3ccsc3)[nH]c2n(C)c1=O", "Adenosine A2 receptor (Rattus norvegicus, UniProt P29276+P30543)", 315]
]}

====

target.system: Adenosine receptor A1 (Rattus norvegicus, UniProt P25099)
Sequence (P25099 whole entry): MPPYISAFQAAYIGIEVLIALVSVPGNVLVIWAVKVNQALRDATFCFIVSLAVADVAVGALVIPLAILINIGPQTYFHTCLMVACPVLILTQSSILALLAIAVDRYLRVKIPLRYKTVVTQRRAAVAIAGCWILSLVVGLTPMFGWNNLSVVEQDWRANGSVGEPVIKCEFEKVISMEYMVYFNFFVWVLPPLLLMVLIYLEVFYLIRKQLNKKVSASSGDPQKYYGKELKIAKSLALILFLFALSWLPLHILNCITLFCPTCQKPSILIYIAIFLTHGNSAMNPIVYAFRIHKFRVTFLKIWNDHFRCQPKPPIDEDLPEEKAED
assay.method.text: Binding affinity against Adenosine A1 receptor in rat cortex by displacement of [3H]cyclohexyladenosine (CHA)
Mark Met only for Ki values smaller than 10 nM; exact matches and larger values are Not met.

{"columns": ["mol", "assigned.category"],
 "data": [
  ["CCCn1c(=O)c2nc(-c3ccsc3)[nH]c2n(C)c1=O", "Met"],
  ["CCCn1c(=O)c2[nH]c(-c3cccnc3)nc2n(C)c1=O", "Not met"],
  ["CCCn1c(=O)c2nc(-c3cccnc3)[nH]c2n(CCC)c1=O", "Not met"],
  ["CCCn1c(=O)c2[nH]c(-c3cccs3)nc2n(CCC)c1=O", "Met"],
  ["CCCn1c(=O)n(C)c(=O)c2[nH]c(-c3cccnc3)nc21", "Not met"],
  ["CCCn1c(=O)c2nc(-c3cccs3)[nH]c2n(C)c1=O", "Met"],
  ["CCCn1c(=O)n(C)c(=O)c2[nH]c(-c3ccsc3)nc21", "Met"]
]}

====

target.system: Adenosine receptors; A1 & A2 (Rattus norvegicus) (UniProt P29276+P25099+P30543)
assay.method.text: Ratio of binding affinities for adenosine A2 and A1 receptors
Format: protein assay
The molecules listed here are annotated with their Ratio.
measured.property: Ratio

{"columns": ["mol", "result"],
 "data": [
  ["CCCn1c(=O)c2nc(-c3cccs3)[nH]c2n(C)c1=O", 74],
  ["CCCn1c(=O)n(C)c(=O)c2[nH]c(-c3cccnc3)nc21", 16],
  ["CCCn1c(=O)c2nc(-c3ccsc3)[nH]c2n(C)c1=O", 49],
  ["CCCn1c(=O)c2nc(-c3cccnc3)[nH]c2n(CCC)c1=O", 30],
  ["CCCn1c(=O)n(C)c(=O)c2[nH]c(-c3ccsc3)nc21", 15],
  ["CCCn1c(=O)c2nc(-c3cccnc3)[nH]c2n(C)c1=O", 44],
  ["CCCn1c(=O)c2nc(-c3cccs3)[nH]c2n(CCC)c1=O", 54]
]}

====

target.system: Adenosine A2 receptor (Rattus norvegicus, UniProt P29276+P30543)
assay.method.text: Binding affinity against adenosine A2 receptor in rat striatum by the displacement of [3H]N-ethyladenosine-5''-uronamide(NECA).
Format: tissue-based
Recorded Ki determines the group label, using Low = under 100 nM, Mid = from 100 nM up to 600 nM, High = 600 nM and over

{"columns": ["mol", "assigned.category"],
 "data": [
  ["CCCn1c(=O)n(C)c(=O)c2[nH]c(/C=C/c3ccccc3)nc21", "Low"],
  ["CCCn1c(=O)c2nc(CCc3ccccc3)[nH]c2n(C)c1=O", "High"],
  ["CCCn1c(=O)c2nc(-c3ccsc3)[nH]c2n(CCC)c1=O", "Low"],
  ["CCCn1c(=O)c2nc(C3CCCCC3)[nH]c2n(C)c1=O", "High"],
  ["CCCn1c(=O)c2nc(-c3ccccc3)[nH]c2n(C)c1=O", "Mid"],
  ["CCCn1c(=O)n(C)c(=O)c2[nH]c(-c3ccc(O)cc3)nc21", "Low"],
  ["CCCn1c(=O)n(C)c(=O)c2[nH]c(C3CCCC3)nc21", "Mid"],
  ["CCCn1c(=O)c2nc(/C=C/c3ccccc3)[nH]c2n(CCC)c1=O", "Low"],
  ["CCCn1c(=O)c2nc(-c3ccncc3)[nH]c2n(C)c1=O", "High"],
  ["CCCn1c(=O)n(C)c(=O)c2[nH]c(-c3ccccc3)nc21", "Low"],
  ["CCCn1c(=O)n(C)c(=O)c2[nH]c(C3CCCCC3)nc21", "Mid"],
  ["CCCn1c(=O)c2nc(-c3ccc(O)cc3)[nH]c2n(C)c1=O", "Mid"],
  ["CCCn1c(=O)c2nc(-c3ccncc3)[nH]c2n(CCC)c1=O", "Mid"],
  ["CCCn1c(=O)n(C)c(=O)c2[nH]c(-c3cccs3)nc21", "Mid"],
  ["CCCn1c(=O)c2nc(C3CCCC3)[nH]c2n(C)c1=O", "High"],
  ["CCCn1c(=O)c2nc(-c3ccc(C#N)cc3)[nH]c2n(C)c1=O", "Mid"],
  ["CCCn1c(=O)n(C)c(=O)c2[nH]c(-c3ccncc3)nc21", "Mid"]
]}
